system.under.test: T1, macaque CD37 (macaque, UniProt P11049 1-277 (human entry))
T1 construct: Expressed on 300-19 cells transfected with pSRa-CD37mac (300-19/CD37mac cells); also called macaca CD37; macaque derived CD37 antigen
T1 chain: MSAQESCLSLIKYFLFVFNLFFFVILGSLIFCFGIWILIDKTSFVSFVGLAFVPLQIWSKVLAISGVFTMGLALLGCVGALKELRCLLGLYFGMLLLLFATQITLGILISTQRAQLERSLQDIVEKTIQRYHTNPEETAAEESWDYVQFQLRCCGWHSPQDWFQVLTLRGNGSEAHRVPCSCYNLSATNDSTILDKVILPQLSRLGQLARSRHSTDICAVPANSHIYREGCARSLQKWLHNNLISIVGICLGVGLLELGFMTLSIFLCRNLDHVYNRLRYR
test.details: flow cytometry, 300-19/CD37mac cells
Method: Binding specificity was tested by flow cytometry using purified antibodies. […] All murine antibodies were incubated for 3 h with either CD37-expressing 300-19 cells or the non-transfected 300-19 cells (1×10⁵ cells per sample) in 100 μL FACS buffer (RPMI-1640 medium supplemented with 2% normal goat serum). […] Samples were acquired using a FACSCalibur flow cytometer with the HTS multiwell sampler or a FACS array flow cytometer and analyzed using CellQuest Pro (all from BD Biosciences, San Diego, US). […]

binder	binding result
muCD37-51 (antibody, mouse IgG2a, kappa, V domains shown, Murine hybridoma antibody) VH: DVQLQESGPDLLKPSQSLSLTCTVTGYSISSGFAWHWIRQFPGNKLEWMGYIHYSGSTNYSPSLKSRISITRDSSKNQFFLQLNSVTTEDTATYYCARGYYGFGAWFVYWGQGTLVTVSA VL: QIVLTQSPAIMSASPGEKVTMTCSATSSVTYMHWYQQKSGTSPKRWIYDTSKLASGVPARFSGSGSGTSYSLTISNMEAEDAATYYCQQWSSNPPTFGSGTKLEIKR	binds
muCD37-38 (antibody, mouse IgG1, kappa, V domains shown, Murine hybridoma antibody) VH: DVQLQESGPDLVKPSQSLSLTCTVTGYSITSGFGWHWIRQFPGNKLEWMAYILYSGGTDYNPSLKSRISITRDTSKNQFFLRLSSVTTEDTATYYCARGYYGYGAWFVYWGQGTLVTVSA VL: QIVLTQSPAIMSASPGEKVTMTCSASSSVTYMHWYQQKSGTSPKRWIYDTSKLASGVPARFSGGGSGTSYSLTISSMEAEDAATYYCQQWISNPPTFGGGTKLEIKR	binds
